# subject.of.test: 5-hydroxytryptamine receptor 4 (Homo sapiens) (UniProt Q13639)
# Sequence (Q13639 whole entry): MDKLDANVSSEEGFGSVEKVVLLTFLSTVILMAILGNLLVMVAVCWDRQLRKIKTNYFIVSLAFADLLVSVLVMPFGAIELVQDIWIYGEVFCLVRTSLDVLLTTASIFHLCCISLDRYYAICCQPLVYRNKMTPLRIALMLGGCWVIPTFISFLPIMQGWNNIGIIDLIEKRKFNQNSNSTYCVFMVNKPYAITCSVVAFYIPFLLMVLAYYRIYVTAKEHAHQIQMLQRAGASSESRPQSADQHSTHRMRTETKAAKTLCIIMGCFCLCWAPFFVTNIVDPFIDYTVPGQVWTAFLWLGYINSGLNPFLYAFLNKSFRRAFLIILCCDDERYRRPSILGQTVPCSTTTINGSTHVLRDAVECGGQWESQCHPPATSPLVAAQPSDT
# protocol.text: Intrinsic activity relative to the 5-HT was determined
# Assay type: functional
# measurement.parameters: Rattus norvegicus
reported.metric: Intrinsic activity

Consider the compound shown here: CCN(CC)CCNC(=O)c1cc(Cl)c(N)cc1OC What is its recorded Intrinsic activity?
0.5

Please give the measured Intrinsic activity for this compound: COc1cc(N)c(Cl)cc1C(=O)CCC1CCN(CCNS(C)(=O)=O)CC1
0.5

Entry COc1cc(N)c(Cl)cc1C(=O)OCCN1CCCCC1 has what Intrinsic activity?
0.5

Report Intrinsic activity for COc1cc(N)c(Cl)cc1C(=O)NCCN1CCCCC1 please.
0.6

Returns the measured Intrinsic activity for the input compound. Input: COc1cc(N)c(Cl)cc1C(=O)NC[C@@H]1CCN2CCC[C@@H]12
0.6
